Sourced from the supplement of paper PMC9170038

The following sequences are shown together with reported apparent KD of K4 kissing-loop reporter values.
# System: K4 kissing-loop RNA reporter;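 note: bound reporter read as fluorescence of individual clusters on recovered sequencing chips by microscopy, with normalized cluster intensities fitted with a binding model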
# ASSAY_TEXT: apparent KD of K4 kissing-loop reporter; higher = weaker reporter binding
# CONDITION_SET: Eterna round: R107; input ligand: arginine 13.2 mM
PROPERTY: apparent KD of K4 kissing-loop reporter (nM)

[[record]]
primary_sequence = "AAAUAAAAGGCGGCCGCCACUGAACGCCUCCGCGUGGGUAUAUAGUGAUGUUAUAUGGCCGCCUUCAGGACCGGGCCAAAUAAAA [AstrosSSTryB#1]"
assay_system = "K4 kissing-loop RNA reporter"
measured_value = 220

[[record]]
primary_sequence = "UUAGGAGUGGGAGGAUAUCCUAAUAUGGGUGAUGUUAGCGAUGUUGAAAGUGUAGUGAUGUUGUGCGGAGAAGGUCCAGUGUUGA [BDazzled - #13 - Exc. FMN B]"
assay_system = "K4 kissing-loop RNA reporter"
measured_value = 126

[[record]]
primary_sequence = "UUUGUAGAGGGAAGGAGCGUGAAAGAGAAAGAAUAUAGUGAUGUUAUAUAGAAGAAAGAAUCACAGGUAGGUCGCCCGGAGGAGG [SSArgB.E]"
assay_system = "K4 kissing-loop RNA reporter"
measured_value = 436

[[record]]
primary_sequence = "AACCGUGUGGCGGCCGCCACUAGUCUCCAGUGAUGUUGGAGAGACCACGUAAGUGGUCUCCAACAUAGGACCGGGCCAUAUGGAA [Same State - Tryptophan B (Freestyle 26)]"
assay_system = "K4 kissing-loop RNA reporter"
measured_value = 78.5

[[record]]
primary_sequence = "AGUCCACUCUAAAGAGUGGACCUAAGGGAUACCAGUGAUGUUGGUCACCCUUGGCAGCCCGCUGUCAUCGAUAAAGAUGGCAGGA"
assay_system = "K4 kissing-loop RNA reporter"
measured_value = 113

[[record]]
primary_sequence = "UGACUGGACUGAAGGAGCGCUGAAGGAGCGUAAGCAGUGAUGUUGCUUACAGGUAGGUCGCAGCAGGUAGGUCGCAGUCUAGUCU"
assay_system = "K4 kissing-loop RNA reporter"
measured_value = 78.7

[[record]]
primary_sequence = "AAUUUUAAUCAUAAAUAAUAAAUAAAUGAUACCAGUAUUUUUUUUUACCCUUGGCAGCGUAUAUAAGGGCAGUGAUGUUGUCAGA [whbob_SS_Theo_A_w60]"
assay_system = "K4 kissing-loop RNA reporter"
measured_value = 98.8

[[record]]
primary_sequence = "UUUUAUUCGUACUUCUAGUGAUGUUAGAUUCGAGGACCGGUACGGCCGCCACUCGUUAAGGCGAUUUUAUAUUUUUUAUUCUUUA [JR_SSTryptoA_Sub012]"
assay_system = "K4 kissing-loop RNA reporter"
measured_value = 165

[[record]]
primary_sequence = "AAAGUGUCAGCACGAGUGAUGUUCGACGAUACCAGCCUCGAUAGAGGCCCUUGGCAGCGUAAAAGUCAAGGGCUGGCACAUAAAA [#SwitchBubble 5 #K4Early]"
assay_system = "K4 kissing-loop RNA reporter"
measured_value = 751

[[record]]
primary_sequence = "AUUUUGUUGUCAGGAUAUUAGUAUGGUUUUGGUUUGUUAGUGAUGUUGAUGUUUUGUUUAUGUAUUUAAGAAGGGAUUUAGCGGU [aqaawgumullin]"
assay_system = "K4 kissing-loop RNA reporter"
measured_value = 352

[[record]]
primary_sequence = "UGAUACCAGACGGCCGCCACUCCUGCAGUCAAAAGACUGCUAAAGGAAAUCGUCCAGUGAUGUUGGAGGACCGGGUCUGGUAUCU [TrypBX 16 #SwitchBubble #Palindromic #StaticStem]"
assay_system = "K4 kissing-loop RNA reporter"
measured_value = 719

[[record]]
primary_sequence = "UUAUCUAUAUUCGAUACCAGUACCCUUUGUGUUAAUCCUUUUAUCAGUGAUGUUGAUGUGUACCCUUGGCAGCGGGUAUGGGUUU [KL-XTheo-B15]"
assay_system = "K4 kissing-loop RNA reporter"
measured_value = 388

[[record]]
primary_sequence = "CUCCUUGGCUAAGGAUAUCGUAGUGAUGUUAUGGUCUUUGCUAAGACUUCUGAUAUUGAAUUCCGACGAGAAGGUAGAAGGACGG [theeternabot_exclusion_KL_FMN_B_18]"
assay_system = "K4 kissing-loop RNA reporter"
measured_value = 690

[[record]]
primary_sequence = "AUUUUUUUAUCAGGAUAUUAGUGUUGGUUUGUUUUGUUAGUGAUGUUGAUAUUUGUUUUAUGUAUUUAAGAAGGGAUUGAGAUGU [huupullin]"
assay_system = "K4 kissing-loop RNA reporter"
measured_value = 254

[[record]]
primary_sequence = "UCUUUUGGCAUGGAUAGAAUGCCGACCGAUACCAGCAAAGUAGGAUGCCCUUGGCAGCGGAGUGAUGUUCCAUUGUCGCGGUUUG [theeternabot_exclusion_KL_Theo_A_48]"
assay_system = "K4 kissing-loop RNA reporter"
measured_value = 91.3

[[record]]
primary_sequence = "AAUUCAGUGAUGUUGGAAGGCAGGCGGGAUACCAGCGGAGAAUAACGCCCUUGGCAGCCCAAAUAUCCCAAAUAGAUAAUAGUUC [Same State - Theophylline A (Freestyle 2)]"
assay_system = "K4 kissing-loop RNA reporter"
measured_value = 353

[[record]]
primary_sequence = "AUUUAGACGAGUGAUGUUCGUGAUUUUUCAGAGGAUAUGCGUAAUAGCAGAAGGCUGUAUUUAUAUAUAUUUUGAUUUUUUUAAA [JR_ExcFMNA_Sub009]"
assay_system = "K4 kissing-loop RNA reporter"
measured_value = 81.6

[[record]]
primary_sequence = "UUUAACGAGUGAUGUUCGAAAAGUAAUGGUGAGGAUAUCGAUUUUUCGAGAAGGCACCUCGAAGUGAUACGAAAGUAUCGCUUCG [FMN A 4]"
assay_system = "K4 kissing-loop RNA reporter"
measured_value = 276

[[record]]
primary_sequence = "UAACUCUUGCAGUGAUGUUGCAAGUAAGCUCAGGAUAUCAGGAAACUGAGAAGGGAGCAUCCUGAGCAACUGCAAGAGCUCAGAA [[K1]-[K2]-[F1]-[F2]-[F]'-[K]'-[F]''_Design1]"
assay_system = "K4 kissing-loop RNA reporter"
measured_value = 101

[[record]]
primary_sequence = "GGAGUUACCUGGGAUACCAGUCGGAGACCCAGAGCUCGGAGUGAUGUUCUGGGAUGUUUCGGCCCUUGGCAGCUCUGGGUCUCCC [#2 Exclusion - Theophylline B Attempt #8 (HarryS)]"
assay_system = "K4 kissing-loop RNA reporter"
measured_value = 615

[[record]]
primary_sequence = "AAAUUUUCAAGUGAUACCAGACAUUUUUAUUUCUUUAUUUAUGCUAAGUGAUGUUUAGCAGUCCCUUGGCAGCACUAUUUAAUUA [JR_Nu_SSTheophyB_Sub030]"
assay_system = "K4 kissing-loop RNA reporter"
measured_value = 174

[[record]]
primary_sequence = "AUGGGUCCACGAAGGAGCGCCGUGCAGUGAUGUUGCAGUUAGAUCCAGUGAUGUUUGGGCCGGCAGGUAGGUCGCGUGGAUUUAU [Exclusion Arginine B GF 22]"
assay_system = "K4 kissing-loop RNA reporter"
measured_value = 199

[[record]]
primary_sequence = "GCAGGCGUAAAAGGAUAUCAGGCUCUCUAGACACGAGUGAUGUUUGUGUAGGUAACGUAAUAGGCAUGAGAAGGUUUCACUUAAA [theeternabot_sameState_KL_FMN_B_49]"
assay_system = "K4 kissing-loop RNA reporter"
measured_value = 430

